# Test system: MS2 coat protein
# EXPERIMENT_SUMMARY: apparent KD of MS2 coat protein; designed switch direction (-1 OFF switch, 1 ON switch): -1; higher = weaker reporter binding
# CONDITION_DESCRIPTION: input ligand: none
We begin with a simple list: items and their reported apparent KD of MS2 coat protein.
Answer with a number only, understood to be in µM.

[[record]]
record_sequence = "AUAAUGUGAGGAUAUCAGUCGACUAGCUUCGGCUAGUCGACUGAGAAGGUACAUGAGGAUCACCCAUGUAGAUC [E4/20-A1] (Eterna round: R97, puzzle: Exclusion 4)"
unit_abbrev = "µM"
recorded_number = 0.0409

[[record]]
record_sequence = "GUCCUGGACUAUCACAAGCACAUGAGGAUCACCCAUGUCAUGGGUAGAUUUAUAAAUAAAGAUACUGCUCGUCUUAU [Cac Sensor turn off var1 sub7] (Eterna round: R97, puzzle: Sensor, turn-off variant 1)"
unit_abbrev = "µM"
recorded_number = 0.252

[[record]]
record_sequence = "GUCCUCAUGACAUGAGGAUCACCCAUGUAUUAUUUGUUAACUGAGGAUAUACUCUUAAUGUUUAUGUAGAAGGCAGAUUCGGUC [JR_ExcNG3_Sub019] (Eterna round: R96, puzzle: Exclusion NG 3)"
unit_abbrev = "µM"
recorded_number = 0.0407

[[record]]
record_sequence = "AAUCCUCUGCAGGAUAUCACUGGAUGAACCAGCUGAGAAGGGCGCACAUGAGGAUCACCCAUGUUGUAAGUAGC [Eternabot (L1) Solution 80] (Eterna round: R97, puzzle: Exclusion 6)"
unit_abbrev = "µM"
recorded_number = 0.0517

[[record]]
record_sequence = "GGAGCAAUGGAGGAUAUCAGGAGCGCUGCUUACUGAGAAGGCCGUACAUGAGGAUCACCCAUGUCUGGGUACGC [Eternabot (L1) Solution 21] (Eterna round: R97, puzzle: Exclusion 6)"
unit_abbrev = "µM"
recorded_number = 0.167


Data request, read-out apparent KD of MS2 coat protein, for GCAUGUCUUAAGGAUAUGCCUAGGCGUGAGCCGGCAGAAGGUAAGACAUGAGGAUCACCCAUGUUUUCCUAAAA [jl-ex6-4.30 ViennaUCT mod] (Eterna round: R97, puzzle: Exclusion 6)
0.0512

Data request, read-out apparent KD of MS2 coat protein, for UCGGCGCGAGGAUAUGCGGCUGCUGCUUCGGGCCGUGGCGUACAUGAGGAUCACCCAUGUAGAAGGCGCGCCGC [Apr-15 SS2-40] (Eterna round: R96, puzzle: Exclusion 2)
0.0148

Data request, read-out apparent KD of MS2 coat protein, for ACAUGUCAUCUAGGAUAUUGGACACAUGAGGAUCACCCAUGUACCCGGAGGCUUUACUAUGAGUUCGAGAAGGAGAUGUACAUG [Ex NG2 #72] (Eterna round: R96, puzzle: Exclusion NG 2)
0.0579

Data request, read-out apparent KD of MS2 coat protein, for AACCUGAGGCUUUGCUUUAGGUGUACAUGAGGAUCACCCAUGUAGGAUAUGGUAGGCAAAGCUUACCAGAAGGACAUUUAGGUU [Mat - Exclusion NG 3 - Mod of JL - D43] (Eterna round: R96, puzzle: Exclusion NG 3)
0.0414

====

# Tested on: MS2 coat protein
# EXPERIMENT_SUMMARY: apparent KD of MS2 coat protein; higher = weaker reporter binding
# CONDITION_DESCRIPTION: Eterna round: R107; input ligand: arginine 13.2 mM
We begin with a simple list: items and their reported apparent KD of MS2 coat protein.
Answer with a number only, understood to be in nM.

[[record]]
record_sequence = "GCUGCCGUCGGUGAAAACUCCCAUGCAGAUACCAGCGCAUUCCGCCGCCCUUGGCAGCUGCAUACAUGAGGAUCACCCAUGUGUU [theeternabot_exclusion_MS2_Theo_A_48]"
property_name = "apparent KD of MS2 coat protein"
recorded_number = 41.4

[[record]]
record_sequence = "GUUUAAAGGUCGGCCGCCACUGUAGGAUGUGUUCUUUCACAUGAGGAUCACCCAUGUUGUUAUUAUAGGACCGGGAUUGUAGGAC [39MS split4]"
property_name = "apparent KD of MS2 coat protein"
recorded_number = 22.6

[[record]]
record_sequence = "GCGGUACGUACUGAUACCAGAGACAUGAGGAUCACCCAUGUCCCAUGGUCAUGCCUCAGACUCCCUUGGCAGCAGGAUAAGUGCG [Exclusion Theophylline B GF3]"
property_name = "apparent KD of MS2 coat protein"
recorded_number = 14.3

[[record]]
record_sequence = "UGUACCAUGUCGGCCGCCACUCAUGAUAAACCUGAGGAUCACCCUGGUAGCGUCAAAGACGCUAUGAGGACCGGGACAUGGUACU [TryBS Zipper 2]"
property_name = "apparent KD of MS2 coat protein"
recorded_number = 29.7


Data request, read-out apparent KD of MS2 coat protein, for GACAAUAAUUCAACAAUCAAAAUAGUGGGACGAGGACCGGUACGGCCGCCACUCGCUGAAGCACAUGAGGAUCACCCAUGUCUAA [theeternabot_exclusion_MS2_Trp_A_47]
14.8

Data request, read-out apparent KD of MS2 coat protein, for GAAGGAGAACUCAUGACUCCUUCCCUGGAAGGAGCGAGCGAAAGCUCAGGUAGGUCGCCAGAAACAUGAGGAUCACCCAUGUAAU [(A)''-(M)'-(A)'-(Arg1)-(Arg2)-(M1)-(M2)_Design4]
28.5

Data request, read-out apparent KD of MS2 coat protein, for AGACUUCGCAUAGGAAAACUAUGUGAAGUCCGAGGACCGGUACGGCCGCCACUCGUCCUCAACAUGAGGAUCACCCAUGUAAUAA [#OpenEnded #CuTurnoff #Tail]
21.1
